B1: CPXM2 (parent)
chain: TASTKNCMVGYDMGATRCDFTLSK

Variants of: B1
ASSAY_COMMENT: protein stability index of a GFP-peptide fusion (GPS, HEK-293T) (PSI 1-6); higher = more stable;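 note: lentivirally expressed fusions sorted by FACS into six bins by GFP to DsRed ratio, PSI derived from sequencing read proportions per bin multiplied by bin number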
ASSAY_CONDITIONS: c terminus: a fixed tail appended
OBSERVED_PROPERTY: protein stability index
# print the numeric value only

Example results:
| VARIANT_NOTATION | protein stability index |
| --- | --- |
| C7A | 3.74 |
| M13E | 3.92 |

Continue with the variant presented below.
Name the recorded protein stability index of the variant listed here: N6C
1.62
